test: protein stability index of a GFP-peptide fusion (yeast GPS) (PSI 1-4); higher = more stable; sorted into four equal gates, so the index is relative within each strain; conditions: pdr5∆
OBSERVATION_TYPE: protein stability index

In [3]: df
Out[3]:
                        residue_codes         observation_type  reported_measurement
 0           VMYGTAYKFEEVSKDLI [RPB8]  protein stability index                  3.18
 1           YCDSMGRPQRKMMSFQA [RPB5]  protein stability index                  3.19
 2           TEGHKGHEELKRRIEEE [ISW2]  protein stability index                  3.42
 3           KEAALKTMIKTIEKDKM [SMC2]  protein stability index                  1.83
 4          QPSYNSAIIENAFRKEE [GAL11]  protein stability index                  2.68
 5           TITDLIEQGIPKHSYLS [SIR4]  protein stability index                  3.16
 6           KNYPEYFLKVTFLKYFG [IRR1]  protein stability index                  1.54
 7           LSKLCVPVANQFINLAG [QCR7]  protein stability index                  2.13
 8          PRFLNKQERSKQERLKE [PRP28]  protein stability index                  2.53
 9           QKVSQLESADKQLEKRD [POP4]  protein stability index                  3.35
10           TETFEKPQRTNTLRMKH [RPB2]  protein stability index                  3.21
11           SFVKETKLHSGDYGEEE [SRB8]  protein stability index                  3.22
12  TYLNEVLEKDAAIVKKY [YGR119C/NUP57]  protein stability index                  3.37
13           MTLNRKCVVIHNGSHRT [ARP7]  protein stability index                  2.74
14           CFCEDHCDKCSVVLTLQ [RPB3]  protein stability index                  3.15
15  YVSQIRKHKRVSPNAAP [YAR002W/NUP60]  protein stability index                  1.64
16           DNKMDSVKEDVKNNQEL [SMC4]  protein stability index                  3.02
17         GVGKRKVWLDPNETSEI [RPL19A]  protein stability index                  3.69
18           QSSLSKVDIPLEVVQYI [NUT2]  protein stability index                  2.16
19           TKENGDFTLPEDFAPLL [PRP8]  protein stability index                  2.78
20           DDINKAKAVWENIIIVG [ARP9]  protein stability index                  2.17
21           RLIDLSGCENITDKTIE [GRR1]  protein stability index                  3.21
22         MAPNTSRKQKVIKTLTV [RPL22B]  protein stability index                     2
23           LASKIKQYERLRFYKDT [RRI1]  protein stability index                  2.52
24          LRNLHMKRMVAQWERSK [SNF12]  protein stability index                  2.89
25           NPSEFTPNMVNSEISNL [SSN2]  protein stability index                   2.5
26   TAFQTQRTAQDRVQQDS [YML031W/NDC1]  protein stability index                  2.62
27   LNELKAIKDKLEQDLHF [YIL149C/MLP2]  protein stability index                  3.13
28   ENANADLENKFNRLKKQ [YIL149C/MLP2]  protein stability index                  3.07
29           THQSPPPPPQQSQPIAN [SNF5]  protein stability index                  3.07
30          GRKHVAALRTVKSLVDN [RPL9A]  protein stability index                  3.17
31          SIGEPATQMTLNTFHFA [RPO21]  protein stability index                  3.04
32           SWVQPRIISGDQITKMK [RPN9]  protein stability index                  3.27

====

assay: protein stability index of a GFP-peptide fusion (yeast GPS) (PSI 1-4); higher = more stable; sorted into four equal gates, so the index is relative within each strain; details: pdr5∆
Rule: protein stability index of 2 or more gives Yes; anything lower gives No.

>>> print(df.to_string())
                        residue_codes  label_class
 0           YKNLDRGFSKDLKSKAD [RRP6]          Yes
 1  RIAVLHQKTKTLASLSI [YGL172W/NUP49]          Yes
 2          HVLKKNPLKNKQVLLRL [RPL4A]           No
 3           GRSNEIVKTTTKQRLDA [PRP8]          Yes
 4           IEEQGDALQDVEESSEK [DPB4]          Yes
 5         LVDLKKELAELKVQKLS [RPL35A]           No
 6           AYSSRFQTPFRRRREGK [RPL5]          Yes
 7          VKKILPLYARYINVNPQ [ECM29]          Yes
 8           LTTFANQVMMDRKIQGW [ARP7]          Yes
 9           IRSSSVSLVAEATSNTN [MED4]           No
10           YSRILKSMGRKCFDDIE [YCG1]          Yes
11           PYGSFHQQQLQQPHYIQ [DSN1]          Yes
12           QVLVTTNQDGLKFVKVR [RPB2]           No
13           KLDQDDEIYIPINGNEA [CSI1]          Yes
14           DRKIEFPPPSVAARAEI [RPT6]          Yes
15           EPYARVSGDLNPIHVSR [FAS1]          Yes
16           LLKDDTYQLCVRLRSNV [RPN3]           No
17           VRSEMGEPIHKIATRGV [FAS1]          Yes
18           GLRTENVLDYFAESPFF [MED6]          Yes
19           NIYNFSPSERIEPLEIN [BRR2]          Yes
20           EKNEKEREIKRRKFDPS [UBP6]          Yes
21          TPSNIRSLCEVLVYDDK [RPC34]           No
22          IPNIPPNINTWQQVTAL [GAL11]          Yes
23          GIDPQDLKKLNLNVYIQ [CDC53]           No
24           VIRIPMQENDKINQERL [CSI1]          Yes

====

assay: protein stability index of a GFP-peptide fusion (yeast GPS) (PSI 1-4); higher = more stable; sorted into four equal gates, so the index is relative within each strain; conditions: doa10∆
OBSERVATION_TYPE: protein stability index

>>> print(df.to_string())
               residue_codes  reported_measurement
0   MGENEKPDVTYADVGGL [RPT3]                  3.07
1  VQHDQILVMETSEEQTK [SWP82]                  2.99
2   INGEDPANNHQLGLQTV [SMX2]                  2.93
3   QVSEVDPGRYNKVCRIE [RPB8]                  3.07

====

Listing of recorded protein stability index by entry.
assay: protein stability index of a GFP-peptide fusion (yeast GPS) (PSI 1-4); higher = more stable; sorted into four equal gates, so the index is relative within each strain; settings: pdr5∆
OBSERVATION_TYPE: protein stability index

In [3]: df
Out[3]:
                residue_codes         observation_type  reported_measurement
0   AKLNYKNLNPASSSPSS [ECM29]  protein stability index                  3.06
1  FNRENKVSPADAAKKAL [RPS26A]  protein stability index                  3.01
2   DLKESMVKGLLKSFTES [ECM29]  protein stability index                     3
